experiment: in vivo; settings: male, sheep (lambs)
PARAMETER: concentration at 1 day (ng/g)
Give bare numbers, in ng/g.

Look up and state reported concentration at 1 day for `Cc1c(O)cc2c(c1C)O[C@](C)(CCC[C@H](C)CCC[C@H](C)CCCC(C)C)CC2`
7180

----------
test: in vivo; conditions: male, sheep (lambs)
PARAMETER: concentration at 6 day (ng/g)
Give bare numbers, in ng/g.

Look up and state reported concentration at 6 day for `Cc1c(O)cc2c(c1C)O[C@](C)(CCC[C@H](C)CCC[C@H](C)CCCC(C)C)CC2`
5570
